For each of the molecules below, state its CC50 at 3 day.
Experiment: MTT cytotoxicity assay
Type: cell-based
Conditions: human, compounds, A549 cells, 3-day incubation

CC[C@H]1CN2CCc3c([nH]c4ccccc34)[C@H]2C[C@@H]1/C(=C\OC)C(=O)OC: > 10 µM

# evaluate next
Qu. # lookup: CC50 at 3 day of "C[C@H]1CC[C@@]2(OC1)O[C@H]1C[C@H]3[C@@H]4CC[C@@H]5C[C@@H](O[C@@H]6O[C@H](CO)[C@H](O)[C@H](O)[C@H]6O[C@@H]6O[C@H](CO)[C@@H](O)[C@H](O)[C@H]6O)CC[C@]5(C)[C@H]4CC[C@]3(C)[C@H]1[C@@H]2C"
Ans. > 10 µM

FYI, the data here is from paper PMC5582420.
